Assay: RP, Thermo Scientific Acclaim RSLC 120 C18, 100 × 2.1 mm, 2.2 µm, 30 °C, 0.2 mL/min, estimated dead time 1.1 min; A: 90% water + 10% methanol + 0.01% formic acid + 5 mM ammonium formate, pH 3.61; B: methanol + 0.01% formic acid + 5 mM ammonium formate, pH 3.61; gradient (min/%B) 0/1 1/1 2/39 13/99.9 15/99.9 15.1/1 20.1/1
Settings: stereoisomer not certain
assay-metric: LC retention time (min)

{"compound": "CCN1CCCC1CNC(=O)c1cc(S(=O)(=O)CC)c(N)cc1OC (stereo not given) [Amisulpride]", "readout-value": 3.88}
{"compound": "CN1CCN(C(=O)OC2c3nccnc3C(=O)N2c2ccc(Cl)cn2)CC1 (stereo not given)", "readout-value": 4.89}
{"compound": "C=CCOc1ccccc1OCC(O)CNC(C)C (stereo not given)", "readout-value": 5.66}

[I] CSC(=O)c1cccc2nnsc12
[II] CN1CCN(c2c(F)cc3c(=O)c(C(=O)O)cn4c3c2OCN4C)CC1
Request: Returns the identifier with the smallest measured LC retention time among I and II . When you have decided, please share the label of that item.
Result: II

# credit: the RepoRT retention time repository (doi:10.1021/acs.analchem.2c02893)
